# TARGET_OR_TEST_SYSTEM: human recombinant TDO2 enzyme (Homo sapiens, UniProt P48775)
# Sequence (P48775 whole entry): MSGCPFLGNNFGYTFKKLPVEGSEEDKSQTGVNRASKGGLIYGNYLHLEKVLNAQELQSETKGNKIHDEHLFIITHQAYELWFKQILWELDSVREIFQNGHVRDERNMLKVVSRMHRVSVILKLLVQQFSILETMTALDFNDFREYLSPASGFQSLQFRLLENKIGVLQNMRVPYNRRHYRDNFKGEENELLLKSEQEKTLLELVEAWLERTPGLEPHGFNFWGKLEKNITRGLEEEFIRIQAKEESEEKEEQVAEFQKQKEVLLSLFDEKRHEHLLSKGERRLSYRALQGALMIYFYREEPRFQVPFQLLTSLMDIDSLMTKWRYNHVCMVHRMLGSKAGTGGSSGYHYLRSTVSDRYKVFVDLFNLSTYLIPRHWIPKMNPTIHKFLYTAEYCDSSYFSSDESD
# EXPERIMENT_NOTES: Assay for TDO2 enzymatic activity determination
# CONDITION: human recombinant TDO2, L-Trp 1 mM, kynurenine absorbance at 480 nm
pIC50: −log10 of the molar value. Counter-ions that a name gives are not always drawn.
MEASUREMENT_KIND: pIC50

# count of solved cases: 6
- COMPOUND: "CN(C)CCS(=O)(=O)NCc1nc2ccc(-c3c[nH]c4cc(F)ccc34)cc2o1 [Compound 100]"
  pIC50: 5.83
- COMPOUND: "Fc1ccc2c(-c3ccc4cnn(CC5CCNCC5)c4c3)c[nH]c2c1 [Compound 3, hydrochloride]"
  pIC50: 5.67
- COMPOUND: "Fc1ccc2c(-c3ccc4cnn(C5CCNCC5)c4c3)c[nH]c2c1 [Compound 6]"
  pIC50: 5.12
- COMPOUND: "O=S(=O)(CCO)NCc1nc2ccc(-c3c[nH]c4cc(F)ccc34)cc2o1 [Compound 106]"
  pIC50: 6.09
- COMPOUND: "NC(=O)CCn1ncc2ccc(-c3c[nH]c4cc(F)ccc34)cc21 [Compound 5]"
  pIC50: 5.93
- COMPOUND: "CC(=O)N1CCC(Cn2ncc3cc(-c4c[nH]c5cc(F)ccc45)ccc32)CC1 [Compound 11]"
  pIC50: 6.17

A. CC(=O)N1CCC(n2cc3cc(-c4c[nH]c5cc(F)ccc45)ccc3n2)CC1 [Compound 24]
B. CN1CCN(CCS(=O)(=O)NCc2nc3ccc(-c4c[nH]c5cc(F)ccc45)cc3o2)CC1 [Compound 122]
Ask: From the recorded data, which exceeds the other in pIC50: A or B ? Could you answer with the label of the item you picked?
Reply: A
(A: 6.03, B: 5.68)

* * *

# TARGET_OR_TEST_SYSTEM: human recombinant TDO2 enzyme (Homo sapiens, UniProt P48775)
# EXPERIMENT_NOTES: Assay for TDO2 enzymatic activity determination
# CONDITION: human recombinant TDO2, L-Trp 1 mM, kynurenine absorbance at 480 nm
# Experimental: […] To convert N-formylkynurenine into kynurenine, the reaction mixture was incubated at 65° C. for 30 min. […] Kynurenine concentrations were determined by measuring the absorbance at 480 nm. […] The TDO activity was measured as described above using ten serial concentrations of the compounds of the present invention. […]
pIC50: −log10 of the molar value.
MEASUREMENT_KIND: pIC50

# count of solved cases: 3
- MOL_SMILES: "Fc1ccc2c(-c3ccc4[nH]ncc4c3)c[nH]c2c1"
  TARGET_OR_TEST_SYSTEM: "human recombinant TDO2 enzyme (Homo sapiens, UniProt P48775)"
  pIC50: 6.22
- MOL_SMILES: "O=C1NS(=O)(=O)c2ccc(-c3c[nH]c4cc(F)ccc34)cc21"
  TARGET_OR_TEST_SYSTEM: "human recombinant TDO2 enzyme (Homo sapiens, UniProt P48775)"
  pIC50: 5.62
- MOL_SMILES: "CC(=O)N1CCC(n2ncc3ccc(-c4c[nH]c5cc(F)ccc45)cc32)CC1"
  TARGET_OR_TEST_SYSTEM: "human recombinant TDO2 enzyme (Homo sapiens, UniProt P48775)"
  pIC50: 4.86

I. CC(=O)N1CCC(Cn2cc3ccc(-c4c[nH]c5cc(F)ccc45)cc3n2)CC1
II. O=S(=O)(CCN1CCCC1)NCc1nc2ccc(-c3c[nH]c4cc(F)ccc34)cc2o1
III. CS(=O)(=O)NCc1nc2ccc(-c3c[nH]c4ccc(F)cc34)cc2o1
Ask: Would you mind ranking these molecules by ascending pIC50? A ranking is expressed here by listing the labels in the requested order.
Reply: III, I, II

I. CC(=O)N1CCC(n2cc3ccc(-c4c[nH]c5cc(F)ccc45)cc3n2)CC1
II. O=S(=O)(CCN1CCNCC1)NCc1nc2ccc(-c3c[nH]c4cc(F)ccc34)cc2o1
Ask: From the recorded data, which exceeds the other in pIC50: I or II ? Could you answer with the label of the item you picked?
Reply: II
(II: 5.87, I: 5.66)

I. CS(=O)(=O)N1CCC(c2nc3ccc(-c4c[nH]c5cc(F)ccc45)cc3o2)CC1
II. NC(=O)CCn1cc2cc(-c3c[nH]c4cc(F)ccc34)ccc2n1
III. Fc1ccc2c(-c3ccc4cn(C5CCNCC5)nc4c3)c[nH]c2c1
Ask: Order the records so the highest pIC50 appears first and the lowest last. A ranking is expressed here by listing the labels in the requested order.
Reply: II, III, I

a. CC(=O)N1CCC(n2ncc3cc(-c4c[nH]c5cc(F)ccc45)ccc32)CC1
b. NC(=O)Cn1cc2cc(-c3c[nH]c4cc(F)ccc34)ccc2n1
c. CS(=O)(=O)CCc1nc2ccc(-c3c[nH]c4cc(F)ccc34)cc2o1
Ask: Order the records so the highest pIC50 appears first and the lowest last. A ranking is expressed here by listing the labels in the requested order.
Reply: b, c, a

I. Fc1ccc2c(-c3ccc4c(cnn4CC4CCNCC4)c3)c[nH]c2c1
II. NC(=O)Cn1cc2ccc(-c3c[nH]c4cc(F)ccc34)cc2n1
Ask: Lower value of pIC50 belongs to which: I or II ? Could you answer with the label of the item you picked?
Reply: II
(II: 5.94, I: 6.37)
